Study system: Tyrosine-protein kinase Mer (Homo sapiens, UniProt Q12866)
Sequence (Q12866 whole entry): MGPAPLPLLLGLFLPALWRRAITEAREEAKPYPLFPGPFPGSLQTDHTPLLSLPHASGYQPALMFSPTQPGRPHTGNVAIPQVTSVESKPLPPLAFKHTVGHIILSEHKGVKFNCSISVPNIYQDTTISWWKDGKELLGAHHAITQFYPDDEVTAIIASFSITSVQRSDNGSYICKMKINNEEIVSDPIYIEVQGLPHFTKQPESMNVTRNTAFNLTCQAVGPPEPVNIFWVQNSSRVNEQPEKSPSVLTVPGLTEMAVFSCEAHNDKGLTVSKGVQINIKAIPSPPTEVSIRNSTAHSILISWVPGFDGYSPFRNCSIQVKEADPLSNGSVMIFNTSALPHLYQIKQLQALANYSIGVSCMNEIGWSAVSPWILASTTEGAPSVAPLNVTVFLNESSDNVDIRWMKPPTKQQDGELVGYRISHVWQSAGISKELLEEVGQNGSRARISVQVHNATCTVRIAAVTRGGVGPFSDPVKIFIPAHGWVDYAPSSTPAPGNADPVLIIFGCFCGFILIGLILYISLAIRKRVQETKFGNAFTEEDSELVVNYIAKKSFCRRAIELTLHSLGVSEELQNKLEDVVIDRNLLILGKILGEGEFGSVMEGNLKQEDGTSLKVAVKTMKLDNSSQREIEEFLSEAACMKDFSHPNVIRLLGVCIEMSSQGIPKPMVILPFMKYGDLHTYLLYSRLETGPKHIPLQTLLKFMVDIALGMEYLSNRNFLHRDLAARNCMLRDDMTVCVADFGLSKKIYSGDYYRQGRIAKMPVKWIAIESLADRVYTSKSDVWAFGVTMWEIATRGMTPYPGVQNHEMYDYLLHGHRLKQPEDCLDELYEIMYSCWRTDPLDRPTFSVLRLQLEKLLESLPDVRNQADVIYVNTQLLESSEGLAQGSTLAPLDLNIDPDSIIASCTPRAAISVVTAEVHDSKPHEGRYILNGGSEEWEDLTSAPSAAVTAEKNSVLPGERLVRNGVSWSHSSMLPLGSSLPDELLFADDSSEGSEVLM
Readout label: IC50

Looking up COc1cc2nccc(Oc3ccc(NC(=O)C4C(=O)C(c5ccc(F)cc5)=C(C)N=C4C)cc3F)c2nc1OC (stereo unspecified) , I see its IC50 listed as < 100 nM

---

Study system: Hepatocyte growth factor receptor (Homo sapiens)
Sequence (P08581 whole entry): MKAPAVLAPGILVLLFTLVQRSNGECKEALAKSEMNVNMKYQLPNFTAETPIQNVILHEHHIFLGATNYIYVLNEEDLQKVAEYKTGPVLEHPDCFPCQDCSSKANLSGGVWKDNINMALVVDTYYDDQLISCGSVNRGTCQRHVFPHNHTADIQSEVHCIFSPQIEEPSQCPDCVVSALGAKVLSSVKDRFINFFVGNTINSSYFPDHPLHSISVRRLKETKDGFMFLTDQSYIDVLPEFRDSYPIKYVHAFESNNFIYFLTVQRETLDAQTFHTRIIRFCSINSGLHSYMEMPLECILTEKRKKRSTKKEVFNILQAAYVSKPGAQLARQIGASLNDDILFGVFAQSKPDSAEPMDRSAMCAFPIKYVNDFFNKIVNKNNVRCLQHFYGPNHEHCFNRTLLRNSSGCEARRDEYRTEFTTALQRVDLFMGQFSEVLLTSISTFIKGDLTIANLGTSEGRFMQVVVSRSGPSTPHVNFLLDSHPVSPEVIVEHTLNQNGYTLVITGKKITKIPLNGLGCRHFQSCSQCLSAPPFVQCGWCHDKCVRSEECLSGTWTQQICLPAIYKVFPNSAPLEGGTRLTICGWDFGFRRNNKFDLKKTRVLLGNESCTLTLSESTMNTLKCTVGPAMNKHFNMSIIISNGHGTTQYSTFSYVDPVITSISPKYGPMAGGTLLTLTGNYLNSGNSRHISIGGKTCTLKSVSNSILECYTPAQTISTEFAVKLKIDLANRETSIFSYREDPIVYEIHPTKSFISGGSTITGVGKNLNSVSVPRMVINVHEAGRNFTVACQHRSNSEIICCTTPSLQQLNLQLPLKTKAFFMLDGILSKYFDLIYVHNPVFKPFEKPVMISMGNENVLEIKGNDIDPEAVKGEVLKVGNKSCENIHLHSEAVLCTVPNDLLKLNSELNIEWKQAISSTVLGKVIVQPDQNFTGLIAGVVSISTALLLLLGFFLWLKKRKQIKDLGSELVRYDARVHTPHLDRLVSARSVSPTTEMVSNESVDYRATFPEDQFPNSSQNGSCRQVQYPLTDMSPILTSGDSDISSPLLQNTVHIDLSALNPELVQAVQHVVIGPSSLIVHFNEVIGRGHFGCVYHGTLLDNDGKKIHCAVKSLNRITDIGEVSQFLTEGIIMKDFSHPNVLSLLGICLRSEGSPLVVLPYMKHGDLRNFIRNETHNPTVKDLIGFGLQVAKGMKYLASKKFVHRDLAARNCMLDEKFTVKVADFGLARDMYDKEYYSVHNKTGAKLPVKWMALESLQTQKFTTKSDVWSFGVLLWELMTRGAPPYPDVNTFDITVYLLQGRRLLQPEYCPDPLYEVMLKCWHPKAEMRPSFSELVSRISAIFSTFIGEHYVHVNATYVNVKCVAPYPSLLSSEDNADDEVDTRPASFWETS
pIC50: −log10 of the molar value.
Readout label: pIC50

Looking up COc1cc2nccc(Oc3ccc(NC(=O)C4C(=O)C(c5ccc(F)cc5)=C(C)N=C4C)cc3F)c2nc1OC (stereo unspecified) , I see its pIC50 listed as > 7.00
